Test Description: mitochondrial membrane potential change in A549 cells, profiling panel, cell-based, JC-1 fluorescence, basal, 24 h, 100 nL (AID 1138);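 note: A549 lung adenocarcinoma cells under basal conditions with no added stimulus; test concentration not given here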
Condition Parameters: higher = more signal
Assay Readout: z-score

>>> result_number("CO[C@@H]1COC(=O)[C@@H]2CCCN2C(=O)[C@@H](C)COC(=O)CC=C[C@H]1C")
-0.84
>>> result_number("Cc1ccc(S(=O)(=O)N[C@@H]2COC(=O)[C@@H](C)COC(=O)CC=C[C@H]2C)cc1")
0.493
>>> result_number("COC(=O)CC=C[C@@H](C)[C@@H](C=NO[C@@H]1O[C@H](COC(C)=O)[C@@H](OC(C)=O)[C@H](OC(C)=O)[C@H]1OC(C)=O)OC")
-0.361
>>> result_number("COc1ccc(COC(=O)NN=C2C[C@@H](O)[C@@H](O)[C@@H]3[C@@H]4C(=O)N(c5ccc(F)cc5F)C(=O)[C@@H]4CC[C@H]23)cc1")
-0.654
>>> result_number("CO[C@H]1COC(=O)[C@@H](Cc2ccccc2)NC(=O)[C@@H](C)COC(=O)CCC[C@@H]1C")
-0.946
>>> result_number("CCOC(=O)[C@H](CC(C)C)NC(=O)CCC1CC(OC(=O)NCc2cccc3ccccc23)CC2(CCCC(COC(=O)NCc3cccc(C(F)(F)F)c3)O2)O1 (stereo not given in full)")
0.841
>>> result_number("CCc1cc2c(nc1CC)CCN(CCC(C)=NO[C@H](C)c1cn([C@H](CO)Cc3ccccc3)nn1)C2")
0.085
>>> result_number("O=C1CCCC(C2=CCCCC2=O)C1 (stereo not given)")
0.475
>>> result_number("CCOC(=O)[C@H](CC(C)C)NC(=O)CCC1CC(OC(=O)NCc2cccc3ccccc23)CC2(CCCC(COC(=O)NCc3ccncc3)O2)O1 (stereo not given in full)")
1.42
>>> result_number("COC(=O)CC=C[C@@H](C)[C@@H](C=NOCC[C@@H]1C=C[C@H](OC(C)=O)[C@@H](COC(C)=O)O1)NS(=O)(=O)c1ccc(C)cc1")
-0.482

----------
Test Description: anti-His antibody binders, primary screen, artefact control for SMM control protein annotation, biochemical, small-molecule microarray, 635 nm fluorescence (AID 1128);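 note: score merges feature fluorescence with signal-to-noise for each printed compound spot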
Condition Parameters: anti-His Alexa647 antibody binding, higher = more signal
Assay Readout: composite z-score

>>> result_number("CC(C)CON=C1C[C@@H](O)[C@@H](O)[C@@H]2[C@@H]3C(=O)N(Cc4ccc5c(c4)OCO5)C(=O)[C@@H]3CC[C@H]12")
0.193
>>> result_number("CO[C@H]1COC(=O)[C@@H](Cc2ccccc2)NC(=O)[C@@H](C)COC(=O)CCC[C@@H]1C")
4.12
>>> result_number("CCOC(=O)NN=C1C[C@@H](O)[C@@H](O)[C@@H]2[C@@H]3C(=O)N([C@@H](C)c4ccccc4)C(=O)[C@@H]3CC[C@@H]12")
-0.43
>>> result_number("COC(=O)CC=C[C@@H](C)[C@@H](C=NOCC[C@@H]1C=C[C@H](OC(C)=O)[C@@H](COC(C)=O)O1)OC")
-0.131
>>> result_number("C#CCCCON=C1C[C@@H](O)[C@@H](O)[C@@H]2[C@@H]3C(=O)N(c4cccc(Oc5ccccc5)c4)C(=O)[C@@H]3CC[C@H]12")
0.247
>>> result_number("CO[C@H]1COC(=O)CC=C[C@@H](C)[C@H](OC)COC(=O)[C@@H]2CCCN2C(=O)CC=C[C@@H]1C")
0.118
